B1: ZNF263 (parent)
chain: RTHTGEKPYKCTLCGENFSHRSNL

- Variants of: B1
- experimentDescription: protein stability index of a GFP-peptide fusion (GPS, HEK-293T) (PSI 1-6); higher = more stable;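 also: lentivirally expressed fusions sorted by FACS into six bins by GFP to DsRed ratio, PSI derived from sequencing read proportions per bin multiplied by bin number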
- testContext: c terminus: a fixed tail appended
Give protein stability index for every item shown.
One number for each entry.

{"sequenceContent": "RTHTGEKPYKCTLCGENFSHRFNL", "numericResult": 2}
{"sequenceContent": "RTHTGEWPYKCTLCGENFSHRSNL", "numericResult": 2.03}
{"sequenceContent": "RTHTGEKPYKCTLCGENTSHRSNL", "numericResult": 1.95}

The record that follows has no protein stability index shown yet.
[Q] # get_value(readout='protein stability index', item= RTHTGEKPYKCTLCGENFSCRSNL )
[A] 2.03
